Attribution: patent US4547357A

- EXPERIMENT_DESCRIPTION: Number of hydroxy groups per molecule
- Type: physicochemical
OBSERVED_PROPERTY: Number of hydroxy groups/molecule
Keep the answer to the number alone.

MOLECULE: CC(=O)Nc1c(I)c(C(=O)N[C@H]2C(O)O[C@H](CO)[C@@H](O)[C@@H]2O)c(I)c(N(C)C(C)=O)c1I (stereo partly shown) [B, Metrizamide]
Number of hydroxy groups/molecule: 4

*Q* Quick one: Number of hydroxy groups/molecule of CC(=O)N(CCO)c1c(I)c(C(=O)NC(CO)C(O)CO)c(I)c(C(=O)NC(CO)C(O)CO)c1I (stereo not shown) ?
*A* 7

*Q* Same question for C[C@H](O)C(=O)Nc1c(I)c(C(=O)NC(CO)CO)c(I)c(C(=O)NC(CO)CO)c1I please.
*A* 5

*Q* Same question for CC(=O)N(CC(O)CO)c1c(I)c(C(=O)NCC(O)CO)c(I)c(C(=O)NCC(O)CO)c1I (stereo not shown) [D, Iohexol] please.
*A* 6

---

- EXPERIMENT_DESCRIPTION: Iodine content
- Type: physicochemical
OBSERVED_PROPERTY: Iodine content (%)
Unit % implied. Number only.

COMPOUND: CC(=O)Nc1c(I)c(C(=O)N[C@H]2C(O)O[C@H](CO)[C@@H](O)[C@@H]2O)c(I)c(N(C)C(C)=O)c1I (stereo partly shown) [B, Metrizamide]
DATA_VALUE: 48
//
COMPOUND: CC(=O)N(CCO)c1c(I)c(C(=O)NC(CO)C(O)CO)c(I)c(C(=O)NC(CO)C(O)CO)c1I (stereo not shown)
DATA_VALUE: 45
//
COMPOUND: CC(=O)N(CC(O)CO)c1c(I)c(C(=O)NCC(O)CO)c(I)c(C(=O)NCC(O)CO)c1I (stereo not shown) [D, Iohexol]
DATA_VALUE: 46

Then there is this compound:
*Q* Quick one: Iodine content of C[C@H](O)C(=O)Nc1c(I)c(C(=O)NC(CO)CO)c(I)c(C(=O)NC(CO)CO)c1I ?
*A* 49

---

- System: Rat
- EXPERIMENT_DESCRIPTION: Neural compatibility, rat, intracisternal ED50
- Type: in vivo
Quick reference for Rat, intracisternal ED50 among some molecules
Unit mg I/kg implied. Number only.

Worked cases, answers included:
MOLECULE: CC(=O)Nc1c(I)c(C(=O)N[C@H]2C(O)O[C@H](CO)[C@@H](O)[C@@H]2O)c(I)c(N(C)C(C)=O)c1I (stereo partly shown) [B, Metrizamide]
Rat, intracisternal ED50 / mg I/kg: 48
--
MOLECULE: C[C@H](O)C(=O)Nc1c(I)c(C(=O)NC(CO)CO)c(I)c(C(=O)NC(CO)CO)c1I [C, Iopamidol]
Rat, intracisternal ED50 / mg I/kg: 116
--
MOLECULE: CC(=O)N(CC(O)CO)c1c(I)c(C(=O)NCC(O)CO)c(I)c(C(=O)NCC(O)CO)c1I (stereo not shown) [D, Iohexol]
Rat, intracisternal ED50 / mg I/kg: 67

Then there is this molecule:
*Q* Quick one: Rat, intracisternal ED50 of CC(=O)N(CCO)c1c(I)c(C(=O)NC(CO)C(O)CO)c(I)c(C(=O)NC(CO)C(O)CO)c1I (stereo not shown) [Example 1] ?
*A* 130

---

- EXPERIMENT_DESCRIPTION: Solubility in water
- Type: physicochemical
- MEASUREMENT_CONDITIONS: in 100 ml of water; read-out: Solubility (100 ml of water dissolves)
OBSERVED_PROPERTY: solubility

Worked cases, answers included:
COMPOUND: CC(=O)N(CCO)c1c(I)c(C(=O)NC(CO)C(O)CO)c(I)c(C(=O)NC(CO)C(O)CO)c1I (stereo not drawn)
DATA_VALUE: > 700 mg/mL
//
COMPOUND: CC(=O)N(CCO)c1c(I)c(C(=O)NCC(O)C(O)CO)c(I)c(C(=O)NCC(O)C(O)CO)c1I (stereo not drawn)
DATA_VALUE: > 700 mg/mL

*Q* Quick one: solubility of CC(=O)N(CCO)c1c(I)c(C(=O)NC(CO)(CO)CO)c(I)c(C(=O)NC(CO)(CO)CO)c1I ?
*A* > 700 mg/mL
